Exercise: for every item that follows, state its recorded Residual turnover [%].
- Tested on: HPPD polypeptides
- protocol description: coupled HPPD activity assay: turnover and residual turnover in crude extracts
- Assay type: biochemical, Pseudomonas fluorescens
- cond: 100 μM Cmpd. 1; signal change with inhibitor divided by signal change without inhibitor

Some solved cases for reference:
{"columns": ["molecule", "result value"],
 "data": [
  ["12 (protein, mutant HPPD polypeptide) MADLYENPMGLMGFEFIEFASPTPGTLEPIFEIMGFTKVATHRSKNVHLYRQGEINLILNNEPNSIASYFAAEHGPSVCGMAFRVKDSQKAYNRALELGAQPIHIDTGPMELNLPAIKGIGGAPLYLIDRFGEGSSIYDIDFVYLEGVERNPVGAGLKVIDHLTHNVYRGRMVYWANFYEKLFNFREARYFDIKGEYTGLTSKAMSAPDGMIRIPLNEESSKGAGQIEEFLMQFNGEGIQHVAFLTDDLVKTWDALKKIGMRFMTAPADNYYEMLEGRLPDHGEPVDQLQARGILLDGSSVEGDKRLLLQIFSETLMGPVFFEFIQRKGDDGFGPDSFKVLFESVERDQVRRGVLTAD", "50%"],
  ["58 (protein, mutant HPPD polypeptide) MADLYENPMGLMGFEFIEFASPTPGTLEPIFEIMGFTKVATHRSKNVHLYRQGEINLILNNEPNSIASYFAAEHGPSVCGMAFRVKDSQKAYNRALELGAQPIHIDTGPMELNLPAIKGIGGAPLYLIDRFGEGSSIYDIDFVYLEGVERNPVGAGLKVIDHLTHNVYRGRMVYWANFYEKLFNFREARYFDIKGEYTGLTSKAMSAPDGMIRIPLNEESSKGAGQIEEFLMQFNGEGIQHVAFLTDDLVKTWDALKKIGMRFMTAPADSYYEMLEGRLPDHGEPVDQLQARGILLDGSSVEGDKRLLLQIFSETLMGPVFFEFIQRKGDDGFGPDSFKVLFESIERDQVRRGVLTAD", "45%"],
  ["9 (protein, mutant HPPD polypeptide) MADLYENPMGLMGFEFIEFASPTPGTLEPIFEIMGFTKVATHRSKNVHLYRQGEINLILNNEPNSIASYFAAEHGPSVCGMAFRVKDSQKAYNRALELGAQPIHIDTGPMELNLPAIKGIGGAPLYLIDRFGEGSSIYDIDFVYLEGVERNPVGAGLKVIDHLTHNVYRGRMVYWANFYEKLFNFREARYFDIKGEYTGLTSKAMSAPDGMIRIPLNEESSKGAGQIEEFLMQFNGEGIQHVAFLTDDLVKTWDALKKIGMRFMTAPADTYYEMLEGRLPDHGEPVDQLQARGILLDGSSVEGDKRLLLQIFSETLMGPVFFEFIQRKGDDGFGPDSFKVLFESVERDQVRRGVLTAD", "52%"]
]}

Name the recorded Residual turnover [%] of the molecule listed here: 19 (protein, mutant HPPD polypeptide) MADLYENPMGLMGFEFIEFASPTPGTLEPIFEIMGFTKVATHRSKNVHLYRQGEINLILNNEPNSIASYFAAEHGPSVCGMAFRVKDSQKAYNRALELGAQPIHIDTGPMELNLPAIKGIGGAPLYLIDRFGEGSSIYDIDFVYLEGVERNPVGAGLKVIDHLTHNVYRGRMVYWANFYEKLFNFREARYFDIKGEYTGLTSKAMSAPDGMIRIPLNEESSKGAGQIEEFLMQFNGEGIQHVAFLTDDLVKTWDALKKIGMRFMTAPRDEYYEMLEGRLPDHGEPVDQLQARGILLDGSSVEGDKRLLLQIFSETLMGPVFFEFIQRKGDDGFGPDSFKVLFESVERDQVRRGVLTAD
45%

// data source = patent US11180770B2
